ASSAY_SYSTEM: Tg244440 (Toxoplasma gondii, UniProt A0A125YNC9)
ASSAY_PROTOCOL: [3H]-guanine uptake and its inhibition in T. brucei TbNB-KO procyclics expressing Tg244440 (clone F5)
Type: cell-based
CONDITION_NOTES: relative to Adenosine
Can you tell me δ(ΔG^0) relative to Adenosine for the items I'm about to list?
One number for each entry, in kcal/mol.

Known δ(ΔG^0) relative to Adenosine results, listed for orientation:
>>> df
                           substance_smiles  reported_result
0  Nc1nccc2c1ncn2[C@@H]1O[C@H](CO)[C@@H](O)[C@H]1O             1.72
1  Nc1ncnc2c1ncn2[C@H]1C[C@H](O)[C@@H](CO)O1             0.12
2   Nc1ncnc2c1ncn2[C@@H]1O[C@H](CO)C[C@H]1O            0.024

// next entry
Asked: Entry under review: `O=[N+]([O-])c1ccc(CSc2ncnc3c2ncn3[C@@H]2O[C@H](CO)[C@@H](O)[C@H]2O)cc1` . Reported δ(ΔG^0) relative to Adenosine?
Given back: 0.0837

----------
Would you kindly list δ(ΔG^0) relative to Hypoxanthine for each of these compounds?
ASSAY_SYSTEM: Tg244440 (Toxoplasma gondii)
ASSAY_PROTOCOL: [3H]-guanine uptake and its inhibition in T. brucei TbNB-KO procyclics expressing Tg244440 (clone F5)
Assay type: cell-based
CONDITION_NOTES: relative to Hypoxanthine
Procedure: Briefly, PCF cells of T. brucei in logarithmic growth were harvested by centrifugation at 1000× g for 10 min, washed twice in AB and then resuspended in fresh buffer at a final density of 10^8 cells/mL. […] The next morning, the vials were vigorously shaken to ensure optimal mixing and the scintillation was measured in a 300SL (Hidex) scintillation counter. […]
One number for each entry, in kcal/mol.

// worked examples, δ(ΔG^0) relative to Hypoxanthine included
In [3]: df
Out[3]:
        substance_smiles                  assay_system                        value_kind  unit_of_measure  reported_result
0     Clc1ncnc2nc[nH]c12  Tg244440 (Toxoplasma gondii)  δ(ΔG^0) relative to Hypoxanthine         kcal/mol             2.29
1  O=c1[nH]cnc2cc[nH]c12  Tg244440 (Toxoplasma gondii)  δ(ΔG^0) relative to Hypoxanthine         kcal/mol            0.837

// input: 7 compounds below; output: δ(ΔG^0) relative to Hypoxanthine for each
1. Nc1ncnc2[nH]cnc12
2. Oc1ncnc2[nH]ncc12
3. O=c1[nH]c(=O)c2nc[nH]c2[nH]1
4. O=c1[nH]cnc2c1ncn2[C@@H]1O[C@H](CO)[C@@H](O)[C@H]1O
5. Sc1ncnc2nc[nH]c12
6. O=c1[nH]ccc2nc[nH]c12
7. O=c1[nH]cnc2c1CC=N2

Given back:
[3.11, 2.61, 1.74, 0.335, 0.287, 1.94, 2.94]

----------
Give measured δ(ΔG^0) relative to Inosine for each item. Keep answers brief.
ASSAY_SYSTEM: Tg244440 (Toxoplasma gondii)
Sequence (A0A125YNC9 1-462): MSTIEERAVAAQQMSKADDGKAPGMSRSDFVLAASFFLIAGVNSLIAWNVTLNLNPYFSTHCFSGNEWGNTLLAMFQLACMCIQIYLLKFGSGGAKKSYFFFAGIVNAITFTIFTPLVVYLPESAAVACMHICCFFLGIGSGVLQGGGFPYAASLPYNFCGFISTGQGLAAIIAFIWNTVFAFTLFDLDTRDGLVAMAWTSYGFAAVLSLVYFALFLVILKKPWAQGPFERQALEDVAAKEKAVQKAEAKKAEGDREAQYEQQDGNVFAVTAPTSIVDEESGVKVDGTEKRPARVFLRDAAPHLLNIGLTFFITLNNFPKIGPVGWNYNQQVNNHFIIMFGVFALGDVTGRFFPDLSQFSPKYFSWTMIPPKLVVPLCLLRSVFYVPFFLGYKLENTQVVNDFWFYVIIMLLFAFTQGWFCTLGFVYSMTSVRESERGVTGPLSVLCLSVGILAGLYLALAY
ASSAY_PROTOCOL: [3H]-guanine uptake and its inhibition in T. brucei TbNB-KO procyclics expressing Tg244440 (clone F5)
Type: cell-based
CONDITION_NOTES: relative to Inosine
Give bare numbers, in kcal/mol.

Below, each entry is followed by its recorded δ(ΔG^0) relative to Inosine result.
In [3]: df
Out[3]:
                           substance_smiles                  assay_system                   value_kind  reported_result
0  COc1ncnc2c1c(Cl)cn2[C@@H]1O[C@H](CO)[C@@H](O)[C@H]1O  Tg244440 (Toxoplasma gondii)  δ(ΔG^0) relative to Inosine             1.36
1  OC[C@H]1O[C@@H](n2cc(Cl)c3c(O)ncnc32)[C@H](O)[C@@H]1O  Tg244440 (Toxoplasma gondii)  δ(ΔG^0) relative to Inosine            0.454
2  OC[C@H]1O[C@@H](n2cnc3c(O)ncnc32)C[C@@H]1O  Tg244440 (Toxoplasma gondii)  δ(ΔG^0) relative to Inosine             1.98
3  CCOc1ncnc2c1c(Cl)cn2[C@@H]1O[C@H](CO)[C@@H](O)[C@H]1O  Tg244440 (Toxoplasma gondii)  δ(ΔG^0) relative to Inosine              2.2
4  OC[C@H]1O[C@@H](n2cnc3cncnc32)[C@H](O)[C@@H]1O  Tg244440 (Toxoplasma gondii)  δ(ΔG^0) relative to Inosine             2.84
5  OC[C@@H]1C[C@@H](O)[C@H](n2cnc3c(O)ncnc32)O1  Tg244440 (Toxoplasma gondii)  δ(ΔG^0) relative to Inosine             1.91

// batch mode: one δ(ΔG^0) relative to Inosine value per listed entry
1. OC[C@H]1O[C@@H](n2cnc3c(S)ncnc32)[C@H](O)[C@@H]1O
2. OC[C@H]1O[C@@H](n2cc(Br)c3c(O)ncnc32)[C@H](O)[C@@H]1O

Given back:
1. 0.335
2. 0.382

----------
Would you kindly list δ(ΔG^0) relative to Guanine for each of these compounds?
ASSAY_SYSTEM: Tg244440 (Toxoplasma gondii)
ASSAY_PROTOCOL: [3H]-guanine uptake and its inhibition in T. brucei TbNB-KO procyclics expressing Tg244440 (clone F5)
Format: cell-based
CONDITION_NOTES: relative to Guanine
Numbers only, in kcal/mol.

In [3]: df
Out[3]:
                           substance_smiles                   value_kind  reported_result
0                  Nc1nc2cc[nH]c2c(=O)[nH]1  δ(ΔG^0) relative to Guanine             1.22
1  Nc1nc2c(ncn2[C@@H]2O[C@H](CO)[C@@H](O)[C@H]2O)c(=O)[nH]1  δ(ΔG^0) relative to Guanine            0.574

Consider the following items and state reported δ(ΔG^0) relative to Guanine for each.
1. O=c1[nH]cnc2nc[nH]c12
2. Nc1nc2c(c(=O)[nH]1)CC=N2
3. O=c1[nH]c(=O)c2nc[nH]c2[nH]1
4. Nc1nc2nc[nH]c2c(=S)[nH]1

Given back:
[0.359, 2.17, 2.08, 0.17]

----------
Would you kindly list ΔG^0 (Gibbs free energy of interaction) for each of these compounds?
ASSAY_SYSTEM: Tg244440 (Toxoplasma gondii, UniProt A0A125YNC9)
Sequence (A0A125YNC9 1-462): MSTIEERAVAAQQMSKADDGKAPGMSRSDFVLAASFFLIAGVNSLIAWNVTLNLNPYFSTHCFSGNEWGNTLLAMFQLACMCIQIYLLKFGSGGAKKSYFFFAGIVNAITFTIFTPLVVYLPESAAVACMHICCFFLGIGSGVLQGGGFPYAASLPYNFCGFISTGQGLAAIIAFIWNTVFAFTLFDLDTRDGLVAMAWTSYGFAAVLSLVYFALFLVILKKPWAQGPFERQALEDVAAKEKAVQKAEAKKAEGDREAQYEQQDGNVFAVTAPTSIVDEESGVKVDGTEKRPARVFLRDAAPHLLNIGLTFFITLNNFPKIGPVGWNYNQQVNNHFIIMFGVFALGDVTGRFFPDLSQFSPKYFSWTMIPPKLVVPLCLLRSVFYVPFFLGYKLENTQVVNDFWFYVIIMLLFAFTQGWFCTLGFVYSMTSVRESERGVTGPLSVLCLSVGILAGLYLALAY
ASSAY_PROTOCOL: [3H]-guanine uptake and its inhibition in T. brucei TbNB-KO procyclics expressing Tg244440 (clone F5)
Format: cell-based
CONDITION_NOTES: calculated from Km or Ki, ΔG0 = −RTln(Ki)
One number for each entry, in kcal/mol.

In [3]: df
Out[3]:
                           substance_smiles  reported_result
0                      Nc1nc(N)c2[nH]cnc2n1            -5.02
1                        Clc1ncnc2nc[nH]c12             -5.4
2                     O=c1[nH]ccc2nc[nH]c12            -5.76
3  OC[C@H]1O[C@@H](n2cnc3c(S)ncnc32)[C@H](O)[C@@H]1O               -7
4  OC[C@@H]1C[C@@H](O)[C@H](n2ccc3c(O)ncnc32)O1            -5.66
5  OC[C@H]1O[C@@H](n2cnc3cncnc32)[C@H](O)[C@@H]1O            -4.52
6                       O=C1CC=Nc2nc[nH]c21            -5.07
7                       O=c1[nH]cnc2c1CC=N2            -4.78
8   Nc1ncnc2c1ncn2[C@@H]1O[C@H](CO)C[C@H]1O            -5.64
9  Nc1ccnc2c1ncn2[C@@H]1O[C@H](CO)[C@@H](O)[C@H]1O            -5.07

Batch request: ΔG^0 (Gibbs free energy of interaction) per item, same order as input.
1. Nc1ncnc2c1ncn2[C@H]1C[C@H](O)[C@@H](CO)O1
2. O=c1[nH]c(=O)c2nc[nH]c2[nH]1
3. Nc1nc2c(c(=O)[nH]1)CC=N2

Given back:
1: -5.57; 2: -5.95; 3: -5.88
